ASSAY NOTES: Partition coefficient (logP)
Assay type: physicochemical
ASSAY CONTEXT: octanol/water; read-out: logP
Reported logP values follow for various molecules
METRIC NAME: logP

molecule="Cc1cn(C2CC(N=[N+]=[N-])C(COP(=O)(OCCSC(=O)C(C)(C)C)Oc3ccc(C[C@H](N)C(=O)OC(C)(C)C)cc3)O2)c(=O)[nH]c1=O (stereo partly specified)" experimental_result=2.9
molecule="Cc1cn(C2CC(N=[N+]=[N-])C(COP(=O)(OCCSC(=O)C(C)(C)C)Oc3ccc(C[C@H](N)C(=O)O)cc3)O2)c(=O)[nH]c1=O (stereo partly specified)" experimental_result=0.24
molecule=Cc1cn([C@H]2C[C@H](N=[N+]=[N-])[C@@H](CO)O2)c(=O)[nH]c1=O experimental_result=0.06
molecule="Cc1cn(C2CC(N=[N+]=[N-])C(COP(=O)(OCCSC(=O)C(C)(C)C)Oc3ccc(C[C@H](NC(=O)OC(C)(C)C)C(=O)OC(C)(C)C)cc3)O2)c(=O)[nH]c1=O (stereo partly specified)" experimental_result=4.29
molecule="Cc1cn(C2CC(N=[N+]=[N-])C(COP(=O)(OCCSC(=O)C(C)(C)C)OCCSC(=O)C(C)(C)C)O2)c(=O)[nH]c1=O (stereo unspecified)" experimental_result=3.73
molecule="COC(=O)[C@H](Cc1ccc(OP(=O)(OCCSC(=O)C(C)(C)C)OCC2OC(n3cc(C)c(=O)[nH]c3=O)CC2N=[N+]=[N-])cc1)NC(=O)OC(C)(C)C (stereo partly specified)" experimental_result=3.48

---

Test system: MT4
ASSAY NOTES: Tested for anti-HIV -1 activity in MT-4 cell culture
Assay type: functional, cell-based
ASSAY CONTEXT: Homo sapiens
pEC50: −log10 of the molar value.
METRIC NAME: pEC50

compound="COC(=O)[C@@H](N)Cc1ccc(OP(=O)(OCCSC(=O)C(C)(C)C)OCC2OC(n3cc(C)c(=O)[nH]c3=O)CC2N=[N+]=[N-])cc1 (stereo partly specified)" metric_name=pEC50 experimental_result=7.43

---

Reported EC50 values follow for various compounds
Tested on: MT4
ASSAY NOTES: Tested for anti-HIV -1 Activity in MT-4 cell culture,(Human)
Format: functional, cell-based
METRIC NAME: EC50 (nM)

compound="Cc1cn(C2CC(N=[N+]=[N-])C(COP(=O)(OCCSC(=O)C(C)(C)C)Oc3ccc(C[C@H](N)C(=O)O)cc3)O2)c(=O)[nH]c1=O (some centres not stated)" target_system=MT4 experimental_result=75
compound="Cc1cn([C@H]2C[C@H](N=[N+]=[N-])[C@@H](COP(=O)(OCCSC(=O)C(C)(C)C)Oc3ccccc3)O2)c(=O)[nH]c1=O (some centres not stated)" target_system=MT4 experimental_result=70

---

System: CCRF-CEM
ASSAY NOTES: Tested for anti-HIV -1 Activity in CEM-SS cell culture
Type: functional, cell-based
ASSAY CONTEXT: Homo sapiens
Reported EC50 values follow for various compounds
METRIC NAME: EC50 (nM)

compound="Cc1cn(C2CC(N=[N+]=[N-])C(COP(=O)(OCCSC(=O)C(C)(C)C)OCCSC(=O)C(C)(C)C)O2)c(=O)[nH]c1=O (stereo not given)" metric_name=EC50 experimental_result=15
compound=Cc1cn([C@H]2C[C@H](N=[N+]=[N-])[C@@H](CO)O2)c(=O)[nH]c1=O metric_name=EC50 experimental_result=3
compound="Cc1cn(C2CC(N=[N+]=[N-])C(COP(=O)(OCCSC(=O)C(C)(C)C)Oc3ccc(C[C@H](N)C(=O)OC(C)(C)C)cc3)O2)c(=O)[nH]c1=O (stereo not given in full)" metric_name=EC50 experimental_result=4
compound="COC(=O)[C@H](Cc1ccc(OP(=O)(OCCSC(=O)C(C)(C)C)OCC2OC(n3cc(C)c(=O)[nH]c3=O)CC2N=[N+]=[N-])cc1)NC(=O)OC(C)(C)C (stereo not given in full)" metric_name=EC50 experimental_result=1
compound="Cc1cn(C2CC(N=[N+]=[N-])C(COP(=O)(OCCSC(=O)C(C)(C)C)Oc3ccc(C[C@H](NC(=O)OC(C)(C)C)C(=O)OC(C)(C)C)cc3)O2)c(=O)[nH]c1=O (stereo not given in full)" metric_name=EC50 experimental_result=34

---

Tested on: MT4
ASSAY NOTES: Tested for anti-HIV -1 Activity in MT-4 cell culture
Format: functional, cell-based
ASSAY CONTEXT: Homo sapiens
pEC50: −log10 of the molar value.
METRIC NAME: pEC50

compound="Cc1cn(C2CC(N=[N+]=[N-])C(COP(=O)(OCCSC(=O)C(C)(C)C)Oc3ccc(C[C@H](N)C(=O)OC(C)(C)C)cc3)O2)c(=O)[nH]c1=O (some centres undefined)" metric_name=pEC50 experimental_result=7.38
compound="COC(=O)[C@H](Cc1ccc(OP(=O)(OCCSC(=O)C(C)(C)C)OCC2OC(n3cc(C)c(=O)[nH]c3=O)CC2N=[N+]=[N-])cc1)NC(=O)OC(C)(C)C (some centres undefined)" metric_name=pEC50 experimental_result=7.48
compound="Cc1cn(C2CC(N=[N+]=[N-])C(COP(=O)(OCCSC(=O)C(C)(C)C)Oc3ccc(C[C@H](NC(=O)OC(C)(C)C)C(=O)OC(C)(C)C)cc3)O2)c(=O)[nH]c1=O (some centres undefined)" metric_name=pEC50 experimental_result=6.60
compound=Cc1cn([C@H]2C[C@H](N=[N+]=[N-])[C@@H](CO)O2)c(=O)[nH]c1=O metric_name=pEC50 experimental_result=7.82
